We begin with a simple list: items and their reported growth.
Tested on: SF-539 CNS
Protocol: NCI-60 one-dose screen, 48 h (100 = growth as untreated, 0 = no growth, -100 = all killed)
Stated Conditions: 10 µM unless noted
This is part of a sample that, as a whole, favours compounds with a hit. Of some 83,000 tested, about 20% had one in any assay.

[
  {
    "Compound": "N#C/C(=C/c1ccc(O)c([N+](=O)[O-])c1)c1nc(-c2ccc([N+](=O)[O-])cc2)cs1",
    "Unit Of Measure": "%",
    "growth": 47.2
  },
  {
    "Compound": "Cc1cc(O)cc(O)c1N=NC1=NCCS1",
    "Unit Of Measure": "%",
    "growth": 100
  },
  {
    "Compound": "c1ccc(-c2cn3ccnc3c(-c3ccc4c(c3)ncn4C3CCCCC3)n2)cc1",
    "Unit Of Measure": "%",
    "growth": 97.8
  },
  {
    "Compound": "COc1cc(-c2csc(NC(=O)Nc3ccc(C(F)(F)F)cc3)n2)cc(OC)c1OC",
    "Unit Of Measure": "%",
    "growth": 16
  },
  {
    "Compound": "C#Cc1ccccc1NC(=O)c1sc2nc3c(cc2c1N)CCCCC3",
    "Unit Of Measure": "%",
    "growth": 101
  },
  {
    "Compound": "CCCCc1nc(Cl)c(C2CC(c3ccc(Cl)cc3)=NN2c2cc(Cl)cc(Cl)c2)[nH]1 (stereo not drawn)",
    "Unit Of Measure": "%",
    "growth": 79.8
  },
  {
    "Compound": "CSc1cccc(NC(=O)Nc2nc3c(C)cccc3s2)c1",
    "Unit Of Measure": "%",
    "growth": 89.3
  },
  {
    "Compound": "COc1cc(C(=O)Nc2cc(OC)c3ccn(C)c3c2)cc2c1C[C@]1(C)CC[C@@H](O)C(C)(C)[C@H]1O2",
    "Unit Of Measure": "%",
    "growth": -26.1
  },
  {
    "Compound": "C=C(C)[C@@H]1CC[C@]2(C(=O)OCCOCCOCC[P+](c3ccccc3)(c3ccccc3)c3ccccc3)CC[C@]3(C)[C@H](CC[C@@H]4[C@@]5(C)CC[C@H](OC(C)=O)C(C)(C)[C@@H]5CC[C@]43C)[C@@H]12",
    "Unit Of Measure": "%",
    "growth": -90.9
  },
  {
    "Compound": "COc1cc([C@H](C)c2ccc3ccccc3c2)cc(OC)c1OC",
    "Unit Of Measure": "%",
    "growth": -19.3
  },
  {
    "Compound": "COc1ccc2nc(-c3ccc(OC)c(OC)c3)cc(-c3nnc(SCC(=O)Nc4ccc(C(C)=O)cc4)o3)c2c1",
    "Unit Of Measure": "%",
    "growth": 96
  },
  {
    "Compound": "O=C(O)CCNC1CCCCC1",
    "Unit Of Measure": "%",
    "growth": 95.7
  },
  {
    "Compound": "Cc1cnc(SCc2ccc(Cl)cc2Cl)nc1Nc1ccc(Cl)c(Cl)c1",
    "Unit Of Measure": "%",
    "growth": 105
  },
  {
    "Compound": "CN1CCN(C(=O)[C@@]2(C)CC[C@]3(C)CC[C@]4(C)C(=CC[C@@H]5[C@@]6(C)CC[C@H](OC(=O)c7cccnc7)C(C)(C)[C@@H]6CC[C@]54C)[C@@H]3C2)CC1",
    "Unit Of Measure": "%",
    "growth": 59.8
  },
  {
    "Compound": "CCCn1cc(/C=N\\N=C2\\C(=O)Nc3ccc(C)cc32)c2ccccc21",
    "Unit Of Measure": "%",
    "growth": 33.9
  },
  {
    "Compound": "O=C(Nc1nc(-c2ccccc2)cs1)c1cc(-c2ccc(Br)cc2)nc2ccccc12",
    "Unit Of Measure": "%",
    "growth": 63
  },
  {
    "Compound": "Oc1ccc(CNNc2ccnc3c(O)cccc23)c2cccnc12",
    "Unit Of Measure": "%",
    "growth": 32.2
  },
  {
    "Compound": "CCN1CCN(c2ccc(NC(=O)Nc3nc4ccc(-c5ccccc5OC)cc4s3)cc2)CC1",
    "Unit Of Measure": "%",
    "growth": -82.6
  },
  {
    "Compound": "CC(C)(C)c1ccc(O)c(Cc2cc(C(C)(C)C)ccc2O)c1",
    "Unit Of Measure": "%",
    "growth": 108
  },
  {
    "Compound": "COc1ccc(-c2[nH]c3ccccc3c2C=C(C#N)C#N)cc1",
    "Unit Of Measure": "%",
    "growth": -26.8
  },
  {
    "Compound": "COC(=O)c1ccc(NC(=O)CSc2nc(-c3ccc(F)cc3)nc3ccccc23)cc1",
    "Unit Of Measure": "%",
    "growth": 96.9
  },
  {
    "Compound": "COc1ccc(N(C)c2nc(Cl)nc3ccn(C)c23)cc1",
    "Unit Of Measure": "%",
    "growth": -32
  },
  {
    "Compound": "N#Cc1c(-c2ccc(F)cc2)nc(N=Nc2c(O)[nH]c3ccccc23)nc1N1CCOCC1",
    "Unit Of Measure": "%",
    "growth": 85.5
  },
  {
    "Compound": "COc1ccc(/C(=N\\O)c2cc(C)c(OC)c(C)c2)cc1O",
    "Unit Of Measure": "%",
    "growth": 2.65
  },
  {
    "Compound": "CCc1n(Cc2ccc3ccccc3c2)c2ccccc2[n+]1Cc1ccc2ccccc2c1",
    "Unit Of Measure": "%",
    "growth": 68.8
  },
  {
    "Compound": "Nc1ccc(C2=NN(C(=O)c3cc(-c4ccc(Cl)cc4)nc4ccccc34)C(c3ccccc3)C2)cc1 (stereo not drawn)",
    "Unit Of Measure": "%",
    "growth": 14.9
  },
  {
    "Compound": "FC(F)(F)c1ccc2c(Nc3cccc(C4CC(c5ccccc5)=NN4c4ccc(Cl)cc4)c3)ccnc2c1 (stereo not drawn)",
    "Unit Of Measure": "%",
    "growth": 86.9
  },
  {
    "Compound": "Clc1ccc2c(NCCCNC3CCCCC3)ccnc2c1",
    "Unit Of Measure": "%",
    "growth": 101
  },
  {
    "Compound": "Cn1c2c(c3ccc(-c4ccn[nH]4)cc3c1=O)C(=O)c1ccccc1-2",
    "Unit Of Measure": "%",
    "growth": 37.3
  },
  {
    "Compound": "COc1ccc(C2C(c3ccccc3)C(=O)N2c2cc(OC)c(OC)c(OC)c2)cc1I (stereo not drawn)",
    "Unit Of Measure": "%",
    "growth": 1.87
  },
  {
    "Compound": "N#Cc1c(-c2ccc(F)cc2)nc(N/N=C/c2c[nH]c3ccccc23)nc1N1CCOCC1",
    "Unit Of Measure": "%",
    "growth": 52.8
  },
  {
    "Compound": "O=C(/C(=C\\c1c(-c2ccccc2)[nH]c2ccccc12)S(=O)(=O)c1ccccc1)c1ccccc1",
    "Unit Of Measure": "%",
    "growth": 75.4
  },
  {
    "Compound": "CCCCCOC(=O)c1ccccc1O",
    "Unit Of Measure": "%",
    "growth": 99.7
  },
  {
    "Compound": "C=C1C(=O)O[C@H]2[C@H]1CC/C(COC(=O)c1cccnc1)=C\\CC[C@@]1(C)O[C@@H]21",
    "Unit Of Measure": "%",
    "growth": 60.2
  },
  {
    "Compound": "COC1=CC=CC2(OC)C3(O)CCCc4cccc(c43)N3C(=O)COC132 (stereo not drawn)",
    "Unit Of Measure": "%",
    "growth": 98
  },
  {
    "Compound": "C=C1C(=O)O[C@H]2[C@H]1CC/C(C=Nc1c(N)cc(F)cc1Br)=C\\CC[C@@]1(C)O[C@@H]21",
    "Unit Of Measure": "%",
    "growth": 86.9
  },
  {
    "Compound": "COc1cc(NC(=O)Nc2cnc(Nc3ccc(N4CCOCC4)cc3)nc2Oc2ccc(C(F)(F)F)cc2)cc(OC)c1",
    "Unit Of Measure": "%",
    "growth": 103
  },
  {
    "Compound": "C=C1C(=O)O[C@H]2[C@H]1CC/C(COC(=O)c1cn(C)c3ccccc13)=C\\CC[C@@]1(C)O[C@@H]21",
    "Unit Of Measure": "%",
    "growth": -58
  }
]
